# experimental.target: Caspase-1 (Homo sapiens)
# Sequence (P29466 whole entry): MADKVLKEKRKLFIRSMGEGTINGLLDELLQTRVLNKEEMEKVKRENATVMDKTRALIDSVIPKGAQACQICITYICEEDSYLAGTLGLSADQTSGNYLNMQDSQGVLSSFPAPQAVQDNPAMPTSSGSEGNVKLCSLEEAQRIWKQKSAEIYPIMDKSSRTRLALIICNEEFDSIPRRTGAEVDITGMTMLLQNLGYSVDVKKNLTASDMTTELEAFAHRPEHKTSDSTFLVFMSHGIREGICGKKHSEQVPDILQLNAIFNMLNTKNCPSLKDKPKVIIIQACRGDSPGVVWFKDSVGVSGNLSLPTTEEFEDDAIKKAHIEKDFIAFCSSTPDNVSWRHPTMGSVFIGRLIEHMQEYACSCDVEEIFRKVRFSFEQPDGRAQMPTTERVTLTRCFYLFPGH
pIC50: −log10 of the molar value.

{"molecule": "COc1ccc(I)cc1C(O)C(=O)N[C@H](C(=O)N[C@@H](CC(=O)O)C(=O)CSCc1ccccc1)C(C)C (some centres undefined)", "sign.qualifier": "=", "pIC50": 6.17}
{"molecule": "C#CC[C@H](C(=O)N[C@H](C(=O)N[C@@H](CC(=O)O)C(=O)CSCc1ccccc1)C(C)C)c1cc(Br)ccc1OC", "sign.qualifier": "<", "pIC50": 5.00}
{"molecule": "COc1ccc(Br)cc1[C@H](Cc1ccccc1)C(=O)N[C@H](C(=O)N[C@@H](CC(=O)O)C(=O)CSCc1ccccc1)C(C)C", "sign.qualifier": "=", "pIC50": 5.24}
{"molecule": "COc1ccc(Br)cc1[C@H](C)C(=O)N[C@H](C(=O)N[C@@H](CC(=O)O)C(=O)CSCc1ccccc1)C(C)C", "sign.qualifier": "<", "pIC50": 5.00}

###

For Caspase-8 (Homo sapiens, UniProt Q14790), measured IC50 is reported for the entries below.

{"molecule": "COc1ccc(Br)cc1[C@H](Cc1ccccc1)C(=O)N[C@H](C(=O)N[C@@H](CC(=O)O)C(=O)CSCc1ccccc1)C(C)C", "unit.of.measure": "µM", "IC50": 5.83}
{"molecule": "CCC[C@H](C(=O)N[C@H](C(=O)N[C@@H](CC(=O)O)C(=O)CSCc1ccccc1)C(C)C)c1cc(Br)ccc1OC", "unit.of.measure": "µM", "IC50": 4.5}
{"molecule": "COc1ccc(Br)cc1[C@H](C)C(=O)N[C@H](C(=O)N[C@@H](CC(=O)O)C(=O)CSCc1ccccc1)C(C)C", "unit.of.measure": "µM", "IC50": 5.38}
{"molecule": "COc1ccc(Br)cc1C(O)C(=O)N[C@H](C(=O)N[C@@H](CC(=O)O)C(=O)CSCc1ccccc1)C(C)C (stereo partly drawn)", "unit.of.measure": "µM", "IC50": 0.104}
{"molecule": "C#CC[C@H](C(=O)N[C@H](C(=O)N[C@@H](CC(=O)O)C(=O)CSCc1ccccc1)C(C)C)c1cc(Br)ccc1OC", "unit.of.measure": "µM", "IC50": 4.47}
{"molecule": "COc1ccc(C(C)=O)cc1C(O)C(=O)N[C@H](C(=O)N[C@@H](CC(=O)O)C(=O)CSCc1ccccc1)C(C)C (stereo partly drawn)", "unit.of.measure": "µM", "IC50": 0.635}
{"molecule": "C=CC[C@H](C(=O)N[C@H](C(=O)N[C@@H](CC(=O)O)C(=O)CSCc1ccccc1)C(C)C)c1cc(Br)ccc1OC", "unit.of.measure": "µM", "IC50": 1.62}
{"molecule": "COc1ccc(-c2nc(C)no2)cc1C(O)C(=O)N[C@H](C(=O)N[C@@H](CC(=O)O)C(=O)CSCc1ccccc1)C(C)C (stereo partly drawn)", "unit.of.measure": "µM", "IC50": 0.28}

###

Target protein (sequence): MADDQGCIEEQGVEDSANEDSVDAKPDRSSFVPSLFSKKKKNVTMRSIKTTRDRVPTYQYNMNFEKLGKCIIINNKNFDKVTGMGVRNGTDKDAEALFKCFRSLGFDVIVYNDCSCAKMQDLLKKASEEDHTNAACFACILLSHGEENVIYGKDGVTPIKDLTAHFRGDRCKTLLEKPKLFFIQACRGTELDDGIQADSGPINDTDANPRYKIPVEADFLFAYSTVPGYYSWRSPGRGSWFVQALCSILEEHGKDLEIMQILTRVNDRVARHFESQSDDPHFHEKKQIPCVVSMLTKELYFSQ

{"compound": "COc1ccc(Br)cc1[C@@H](C(=O)N[C@H](C(=O)N[C@@H](CC(=O)O)C(=O)CSCc1ccccc1)C(C)C)C(C)C", "sign.qualifier": ">", "IC50 / nM": 10000}
{"compound": "C#CC[C@H](C(=O)N[C@H](C(=O)N[C@@H](CC(=O)O)C(=O)CSCc1ccccc1)C(C)C)c1cc(Br)ccc1OC", "sign.qualifier": "=", "IC50 / nM": 3620}
{"compound": "COc1ccc(C(C)=O)cc1C(O)C(=O)N[C@H](C(=O)N[C@@H](CC(=O)O)C(=O)CSCc1ccccc1)C(C)C (stereo not given in full)", "sign.qualifier": "=", "IC50 / nM": 290}
{"compound": "COc1ccc(-c2nc(C)no2)cc1C(O)C(=O)N[C@H](C(=O)N[C@@H](CC(=O)O)C(=O)CSCc1ccccc1)C(C)C (stereo not given in full)", "sign.qualifier": "=", "IC50 / nM": 63}
{"compound": "COc1ccc(Br)cc1C1(C(=O)N[C@H](C(=O)N[C@@H](CC(=O)O)C(=O)CSCc2ccccc2)C(C)C)CC1", "sign.qualifier": ">", "IC50 / nM": 10000}

###

# experimental.target: Caspase-3 (Homo sapiens, UniProt P42574)
# Sequence (P42574 29-175 limits assumed): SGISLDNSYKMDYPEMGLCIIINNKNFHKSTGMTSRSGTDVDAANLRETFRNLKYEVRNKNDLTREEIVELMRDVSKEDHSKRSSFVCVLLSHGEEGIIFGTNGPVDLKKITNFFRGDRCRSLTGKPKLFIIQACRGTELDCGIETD
# Sequence (P42574 176-277 limits assumed): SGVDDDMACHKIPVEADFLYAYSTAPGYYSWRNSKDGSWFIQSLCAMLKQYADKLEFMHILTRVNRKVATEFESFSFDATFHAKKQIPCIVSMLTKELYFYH
# assay.notes: Caspase Inhibition Assay
# study.conditions: pH 7; 37 °C

{"sample.smiles": "COc1ccc(Br)cc1[C@@H](C(=O)N[C@H](C(=O)N[C@@H](CC(=O)O)C(=O)CSCc1ccccc1)C(C)C)C(C)C", "unit.of.measure": "nM", "IC50": 9440}
{"sample.smiles": "C=CC[C@H](C(=O)N[C@H](C(=O)N[C@@H](CC(=O)O)C(=O)CSCc1ccccc1)C(C)C)c1cc(Br)ccc1OC", "unit.of.measure": "nM", "IC50": 80}
{"sample.smiles": "COc1ccc(Br)cc1C1(C(=O)N[C@H](C(=O)N[C@@H](CC(=O)O)C(=O)CSCc2ccccc2)C(C)C)CC1", "unit.of.measure": "nM", "IC50": 323}
{"sample.smiles": "COc1ccc(Br)cc1[C@H](Cc1ccccc1)C(=O)N[C@H](C(=O)N[C@@H](CC(=O)O)C(=O)CSCc1ccccc1)C(C)C", "unit.of.measure": "nM", "IC50": 181}
{"sample.smiles": "C#CC[C@H](C(=O)N[C@H](C(=O)N[C@@H](CC(=O)O)C(=O)CSCc1ccccc1)C(C)C)c1cc(Br)ccc1OC", "unit.of.measure": "nM", "IC50": 341}
{"sample.smiles": "CCC[C@H](C(=O)N[C@H](C(=O)N[C@@H](CC(=O)O)C(=O)CSCc1ccccc1)C(C)C)c1cc(Br)ccc1OC", "unit.of.measure": "nM", "IC50": 274}
{"sample.smiles": "COc1ccc(Br)cc1[C@H](C)C(=O)N[C@H](C(=O)N[C@@H](CC(=O)O)C(=O)CSCc1ccccc1)C(C)C", "unit.of.measure": "nM", "IC50": 176}
